B1: CAMK2B (parent)
chain: YQQIKAGAYDFPSPEWDTVTPEAK

Variants of: B1
EXPERIMENTAL_DETAILS: protein stability index of a GFP-peptide fusion (GPS, HEK-293T) (PSI 1-6); higher = more stable;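 further: lentivirally expressed fusions sorted by FACS into six bins by GFP to DsRed ratio, PSI derived from sequencing read proportions per bin multiplied by bin number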
RUN_CONDITIONS: c terminus: a fixed tail appended
Reported protein stability index values for the following variants.
// keep it numeric: no unit symbol after the value

Worked cases, protein stability index given:
>  <MUTATION_ANNOTATION>
Q2H

>  <RESULT_VALUE>
2.88

$$$$
>  <MUTATION_ANNOTATION>
Y9K

>  <RESULT_VALUE>
3.99

$$$$
>  <MUTATION_ANNOTATION>
E15W

>  <RESULT_VALUE>
2.21

$$$$
>  <MUTATION_ANNOTATION>
F11D

>  <RESULT_VALUE>
4.63

$$$$
>  <MUTATION_ANNOTATION>
Q3W

>  <RESULT_VALUE>
2.09

$$$$
>  <MUTATION_ANNOTATION>
G7C

>  <RESULT_VALUE>
2.77

$$$$
>  <MUTATION_ANNOTATION>
A23K

>  <RESULT_VALUE>
3.82

$$$$
>  <MUTATION_ANNOTATION>
I4F

>  <RESULT_VALUE>
3.19

$$$$
>  <MUTATION_ANNOTATION>
K24Y

>  <RESULT_VALUE>
3.04

$$$$
>  <MUTATION_ANNOTATION>
A8M

>  <RESULT_VALUE>
3.44

$$$$

In: For the variant Y1C , give its measured protein stability index value.
Out: 4.45

In: For the variant P12V , give its measured protein stability index value.
Out: 2.81

In: For the variant P14N , give its measured protein stability index value.
Out: 3.88

In: For the variant K5E , give its measured protein stability index value.
Out: 4.84

In: For the variant A6F , give its measured protein stability index value.
Out: 2.9

In: For the variant P21K , give its measured protein stability index value.
Out: 3.76
